Field: Hill coefficient n. Provide a value for each of the compounds that follow.
test_system: recombinant human nectin-4 (Homo sapiens)
Construct: close to the value determined for the complete extracellular domain of nectin-4 (0.94 nM); purchased R&D Systems 2659-N4
Sequence (Q96NY8 32-349 limits assumed): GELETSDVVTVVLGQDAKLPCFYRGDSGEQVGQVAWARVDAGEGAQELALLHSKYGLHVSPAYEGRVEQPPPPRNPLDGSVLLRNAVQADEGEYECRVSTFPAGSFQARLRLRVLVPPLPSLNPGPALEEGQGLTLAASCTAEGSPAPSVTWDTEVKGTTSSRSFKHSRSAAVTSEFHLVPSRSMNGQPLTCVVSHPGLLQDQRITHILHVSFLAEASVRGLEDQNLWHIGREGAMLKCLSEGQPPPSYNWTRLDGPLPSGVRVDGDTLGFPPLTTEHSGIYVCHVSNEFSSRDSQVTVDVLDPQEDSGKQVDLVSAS
test_details: FA-based competitive binding assay with probe 1a
condition_context: competitive binding curve, variable slope
Answers are plain numbers.

Worked cases, answers included:
compound: CSCC[C@@H]1NC(=O)[C@@H]2CSCCC(=O)N3CN(CN(C3)C(=O)CCSC[C@H](NC(C)=O)C(=O)N3CCC[C@H]3C(=O)N[C@@H](Cc3cccc4ccccc34)C(=O)N[C@H](CC(=O)O)C(=O)N2)C(=O)CCSC[C@@H](C(N)=O)NC(=O)[C@H](Cc2c[nH]c3ccccc23)NC(=O)[C@@H]2C[C@@H](O)CN2C(=O)[C@@H]2CCCN2C(=O)[C@H]([C@@H](C)O)NC(=O)[C@H](CO)NC(=O)[C@H](Cc2c[nH]c3ccccc23)NC(=O)[C@H](CC(=O)O)NC(=O)[C@H](CCCCNC(=N)N)NC1=O [1d, reference compound]
reported: 2.37

compound: CSCC[C@@H]1NC(=O)[C@@H]2CSCCC(=O)N3CN(CN(C3)C(=O)CCSC[C@H](NC(=O)CC[C@H](C(=O)O)N3CCN(CC(=O)O)CCN(CC(=O)O)CC3)C(=O)N3CCC[C@H]3C(=O)N[C@@H](Cc3cccc4ccccc34)C(=O)N[C@H](CC(=O)O)C(=O)N2)C(=O)CCSC[C@@H](C(N)=O)NC(=O)[C@H](Cc2c[nH]c3ccccc23)NC(=O)[C@@H]2C[C@@H](O)CN2C(=O)[C@@H]2CCCN2C(=O)[C@H]([C@@H](C)O)NC(=O)[C@H](CO)NC(=O)[C@H](Cc2c[nH]c3ccccc23)NC(=O)[C@H](CC(=O)O)NC(=O)[C@H](CCCCNC(=N)N)NC1=O [1e]
reported: 1.52

Next compound, please.
Would you kindly share the measured Hill coefficient n for CSCC[C@@H]1NC(=O)[C@@H]2CSCCC(=O)N3CN(CN(C3)C(=O)CCSC[C@H](N)C(=O)N3CCC[C@H]3C(=O)N[C@@H](Cc3cccc4ccccc34)C(=O)N[C@H](CC(=O)O)C(=O)N2)C(=O)CCSC[C@@H](C(N)=O)NC(=O)[C@H](Cc2c[nH]c3ccccc23)NC(=O)[C@@H]2C[C@@H](O)CN2C(=O)[C@@H]2CCCN2C(=O)[C@H]([C@@H](C)O)NC(=O)[C@H](CO)NC(=O)[C@H](Cc2c[nH]c3ccccc23)NC(=O)[C@H](CC(=O)O)NC(=O)[C@H](CCCCNC(=N)N)NC1=O [1c] ? 2.12

Where do these numbers come from? They come from paper PMC12557367.
